target: Mu-type opioid receptor (Homo sapiens, UniProt P35372); experiment: Antagonist activity assessed as inhibition of loperamide-stimulated [35S]GTPgammaS binding to human mu opioid receptor expressed in CHO cells
Sequence (P35372 whole entry): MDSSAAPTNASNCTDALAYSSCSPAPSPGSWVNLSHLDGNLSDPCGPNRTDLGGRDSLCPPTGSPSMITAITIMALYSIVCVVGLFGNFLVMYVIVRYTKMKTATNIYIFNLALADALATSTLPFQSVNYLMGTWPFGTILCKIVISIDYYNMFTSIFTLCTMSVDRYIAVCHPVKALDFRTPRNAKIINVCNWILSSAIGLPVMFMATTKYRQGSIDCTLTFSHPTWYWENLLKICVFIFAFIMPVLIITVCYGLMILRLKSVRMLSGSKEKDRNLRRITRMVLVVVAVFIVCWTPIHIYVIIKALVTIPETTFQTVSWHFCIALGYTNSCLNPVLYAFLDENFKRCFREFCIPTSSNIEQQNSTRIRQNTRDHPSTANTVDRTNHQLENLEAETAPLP
Reported pIC50 values for a set of molecules
// pIC50 is dimensionless: -log10 of concentration (M)

Please review the following examples before continuing.
[[record]]
smiles_entry = "C[C@H]1CN2CCN(CCCc3ccccc3)C[C@H]2C[C@@]1(C)c1cccc(O)c1"
measured_value = 7.89

[[record]]
smiles_entry = "C[C@H]1CN2CCN(Cc3ccco3)C[C@H]2C[C@@]1(C)c1cccc(O)c1"
measured_value = 8.14


Entry C[C@H]1CN2C[C@H](c3ccccc3)N(Cc3ccccc3)C[C@H]2C[C@@]1(C)c1cccc(O)c1 ; pIC50 = 7.40

Entry C[C@H]1CN2C[C@H](C3CCCCC3)NC[C@H]2C[C@@]1(C)c1cccc(O)c1 ; pIC50 = 8.89

Entry C[C@H]1CN2CCN(S(=O)(=O)c3ccccc3)C[C@H]2C[C@@]1(C)c1cccc(O)c1 ; pIC50 = 6.85

###

molecular target: Kappa-type opioid receptor (Homo sapiens, UniProt P41145); test: Displacement of [3H]diprenorphine from human cloned kappa opioid receptor expressed in CHO cells; format: cell-based
Sequence (P41145 whole entry): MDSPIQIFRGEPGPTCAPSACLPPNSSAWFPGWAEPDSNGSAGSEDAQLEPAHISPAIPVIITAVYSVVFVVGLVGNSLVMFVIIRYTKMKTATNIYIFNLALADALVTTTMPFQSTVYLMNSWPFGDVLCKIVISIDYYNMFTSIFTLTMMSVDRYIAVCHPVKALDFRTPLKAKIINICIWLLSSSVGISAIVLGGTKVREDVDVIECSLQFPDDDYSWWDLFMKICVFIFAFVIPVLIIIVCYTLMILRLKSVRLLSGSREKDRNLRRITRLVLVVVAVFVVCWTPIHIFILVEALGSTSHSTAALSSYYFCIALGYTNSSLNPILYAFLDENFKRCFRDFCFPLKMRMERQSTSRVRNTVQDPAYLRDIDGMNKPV
pKi: −log10 of the molar value.
Decision: pKi compared against 7; not below it gives fulfilled, below it gives not fulfilled.

Solved cases (5 shown):
[[record]]
smiles_entry = "C[C@H]1CN2CCN(Cc3ccco3)C[C@H]2C[C@@]1(C)c1cccc(O)c1"
class_name = "not fulfilled"

[[record]]
smiles_entry = "C[C@H]1CN2CCN(Cc3ccc4ccccc4c3)C[C@H]2C[C@@]1(C)c1cccc(O)c1"
class_name = "not fulfilled"

[[record]]
smiles_entry = "CC(=O)N1C[C@H]2C[C@@](C)(c3cccc(O)c3)[C@@H](C)CN2C[C@@H]1c1ccccc1"
class_name = "not fulfilled"

[[record]]
smiles_entry = "C[C@H]1CN2CCN(c3ccccc3)C[C@H]2C[C@@]1(C)c1cccc(O)c1"
class_name = "not fulfilled"

[[record]]
smiles_entry = "C[C@H]1CN2C[C@H](c3ccccc3)NC[C@H]2C[C@@]1(C)c1cccc(C(N)=O)c1"
class_name = "fulfilled"


Exam item: Quick check: does C[C@H]1CN2CCN(Cc3ccc(Cl)cc3)C[C@H]2C[C@@]1(C)c1cccc(O)c1 have pKi greater than or equal to 7?
Marked response: not fulfilled

Exam item: Quick check: does C[C@H]1CN2CCN(C(=O)c3ccccc3)C[C@H]2C[C@@]1(C)c1cccc(O)c1 have pKi greater than or equal to 7?
Marked response: not fulfilled

Exam item: Quick check: does C[C@H]1CN2CCN(Cc3cccnc3)C[C@H]2C[C@@]1(C)c1cccc(O)c1 have pKi greater than or equal to 7?
Marked response: not fulfilled

Exam item: Quick check: does C[C@H]1CN2CCN(CCCc3ccccc3)C[C@H]2C[C@@]1(C)c1cccc(O)c1 have pKi greater than or equal to 7?
Marked response: not fulfilled

Exam item: Quick check: does C[C@H]1CN2CCN(Cc3cccc(O)c3)C[C@H]2C[C@@]1(C)c1cccc(O)c1 have pKi greater than or equal to 7?
Marked response: fulfilled

Exam item: Quick check: does C[C@H]1CN2CCN(Cc3cccc(OCc4ccccc4)c3)C[C@H]2C[C@@]1(C)c1cccc(O)c1 have pKi greater than or equal to 7?
Marked response: fulfilled

Exam item: Quick check: does C[C@H]1CN2CCN(Cc3ccccn3)C[C@H]2C[C@@]1(C)c1cccc(O)c1 have pKi greater than or equal to 7?
Marked response: not fulfilled

Exam item: Quick check: does CC(C)[C@H]1CN2C[C@H](C)[C@](C)(c3cccc(O)c3)C[C@@H]2CN1 have pKi greater than or equal to 7?
Marked response: fulfilled

Exam item: Quick check: does C[C@H]1CN2C[C@H](c3ccccc3)N(C)C[C@H]2C[C@@]1(C)c1cccc(O)c1 have pKi greater than or equal to 7?
Marked response: fulfilled

Exam item: Quick check: does C[C@H]1CN2C[C@H](C3CCCCC3)NC[C@H]2C[C@@]1(C)c1cccc(O)c1 have pKi greater than or equal to 7?
Marked response: fulfilled

###

Reported Ki values for a set of molecules
target: Kappa-type opioid receptor (Homo sapiens)
Just the number in nM, nothing appended.

[[record]]
smiles_entry = "Cc1ccccc1CN1CCN2C[C@H](C)[C@](C)(c3cccc(O)c3)C[C@@H]2C1"
tested_on = "Kappa-type opioid receptor (Homo sapiens)"
assay_endpoint = "Ki"
measured_value = 30

[[record]]
smiles_entry = "C[C@H]1CN2CCN(Cc3ccc(O)cc3)C[C@H]2C[C@@]1(C)c1cccc(O)c1"
tested_on = "Kappa-type opioid receptor (Homo sapiens)"
assay_endpoint = "Ki"
measured_value = 270

[[record]]
smiles_entry = "C[C@H]1CN2CCCN(Cc3ccccc3)C[C@H]2C[C@@]1(C)c1cccc(O)c1"
tested_on = "Kappa-type opioid receptor (Homo sapiens)"
assay_endpoint = "Ki"
measured_value = 540


// returns Ki for C[C@H]1CN2CCN(Cc3cccc(Oc4ccccc4)c3)C[C@H]2C[C@@]1(C)c1cccc(O)c1 with Kappa-type opioid receptor (Homo sapiens); value = 24

// returns Ki for C[C@H]1CN2CCN(CC3CCCCC3)C[C@H]2C[C@@]1(C)c1cccc(O)c1 with Kappa-type opioid receptor (Homo sapiens); value = 84

// returns Ki for Cc1ccc(CN2CCN3C[C@H](C)[C@](C)(c4cccc(O)c4)C[C@@H]3C2)cc1 with Kappa-type opioid receptor (Homo sapiens); value = 300

// returns Ki for C[C@H]1CN2C[C@H](c3ccccc3)N(Cc3ccccc3)C[C@H]2C[C@@]1(C)c1cccc(O)c1 with Kappa-type opioid receptor (Homo sapiens); value = 120

// returns Ki for C[C@H]1CN2CCN(Cc3ccccc3Cl)C[C@H]2C[C@@]1(C)c1cccc(O)c1 with Kappa-type opioid receptor (Homo sapiens); value = 16

// returns Ki for C[C@H]1CN2C[C@@H](c3ccccc3)NC[C@H]2C[C@@]1(C)c1cccc(O)c1 with Kappa-type opioid receptor (Homo sapiens); value = 430

// returns Ki for C[C@H]1CN2CCN(Cc3ccccc3)C[C@H]2C[C@@]1(C)c1cccc(O)c1 with Kappa-type opioid receptor (Homo sapiens); value = 43

// returns Ki for C[C@H]1CN2CCN(C(=O)Cc3ccccc3)C[C@H]2C[C@@]1(C)c1cccc(O)c1 with Kappa-type opioid receptor (Homo sapiens); value = 540

// returns Ki for C[C@H]1CN2C[C@@H](Cc3ccccc3)NC[C@H]2C[C@@]1(C)c1cccc(O)c1 with Kappa-type opioid receptor (Homo sapiens); value = 130

// returns Ki for C[C@H]1CN2CCN(C(=O)Nc3ccccc3)C[C@H]2C[C@@]1(C)c1cccc(O)c1 with Kappa-type opioid receptor (Homo sapiens); value = 420

// returns Ki for Cc1cccc(CN2CCN3C[C@H](C)[C@](C)(c4cccc(O)c4)C[C@@H]3C2)c1 with Kappa-type opioid receptor (Homo sapiens); value = 130

// returns Ki for C[C@H]1CN2CCN(Cc3cccc4ccccc34)C[C@H]2C[C@@]1(C)c1cccc(O)c1 with Kappa-type opioid receptor (Homo sapiens); value = 230

// returns Ki for C[C@H]1CN2C[C@H](c3ccccc3)N(Cc3ccccc3)C[C@H]2C[C@@]1(C)c1cccc(C(N)=O)c1 with Kappa-type opioid receptor (Homo sapiens); value = 460

// returns Ki for C[C@H]1CN2CCN(Cc3cccs3)C[C@H]2C[C@@]1(C)c1cccc(O)c1 with Kappa-type opioid receptor (Homo sapiens); value = 37

// returns Ki for COC(=O)c1cccc(CN2CCN3C[C@H](C)[C@](C)(c4cccc(O)c4)C[C@@H]3C2)c1 with Kappa-type opioid receptor (Homo sapiens); value = 140

// returns Ki for C[C@H]1CN2CCN(Cc3ccsc3)C[C@H]2C[C@@]1(C)c1cccc(O)c1 with Kappa-type opioid receptor (Homo sapiens); value = 38

###

target: Mu-type opioid receptor (Homo sapiens); assay: Antagonist activity assessed as inhibition of loperamide-stimulated [35S]GTPgammaS binding to human mu opioid receptor expressed in CHO cells
Threshold 20 nM. IC50 below it: condition met. IC50 at it or above: condition not met.

Solved cases (5 shown):
[[record]]
smiles_entry = "CC(C)[C@H]1CN2C[C@H](C)[C@](C)(c3cccc(O)c3)C[C@@H]2CN1"
class_name = "condition not met"

[[record]]
smiles_entry = "C[C@H]1CN2C[C@@H](c3ccccc3)NC[C@H]2C[C@@]1(C)c1cccc(O)c1"
class_name = "condition not met"

[[record]]
smiles_entry = "C[C@H]1CN2CCCN(Cc3ccccc3)C[C@H]2C[C@@]1(C)c1cccc(O)c1"
class_name = "condition met"

[[record]]
smiles_entry = "COC(=O)c1cccc(CN2CCN3C[C@H](C)[C@](C)(c4cccc(O)c4)C[C@@H]3C2)c1"
class_name = "condition met"

[[record]]
smiles_entry = "C[C@H]1CN2C[C@H](c3ccccc3)N(Cc3ccccc3)C[C@H]2C[C@@]1(C)c1cccc(C(N)=O)c1"
class_name = "condition not met"


Exam item: Take the molecule Cc1cccc(CN2CCN3C[C@H](C)[C@](C)(c4cccc(O)c4)C[C@@H]3C2)c1 and say whether its IC50 is less than 20 nM.
Marked response: condition met

Exam item: Take the molecule C[C@H]1CN2CCN(Cc3cccnc3)C[C@H]2C[C@@]1(C)c1cccc(O)c1 and say whether its IC50 is less than 20 nM.
Marked response: condition met

Exam item: Take the molecule C[C@H]1CN2CCN(Cc3cccs3)C[C@H]2C[C@@]1(C)c1cccc(O)c1 and say whether its IC50 is less than 20 nM.
Marked response: condition met

Exam item: Take the molecule C[C@H]1CN2CCN(Cc3ccsc3)C[C@H]2C[C@@]1(C)c1cccc(O)c1 and say whether its IC50 is less than 20 nM.
Marked response: condition met

This collection of values is drawn from ChEMBL document CHEMBL1137297.
